# study target: human D2 receptor (Homo sapiens (Human), UniProt P14416)
# Sequence (P14416 whole entry): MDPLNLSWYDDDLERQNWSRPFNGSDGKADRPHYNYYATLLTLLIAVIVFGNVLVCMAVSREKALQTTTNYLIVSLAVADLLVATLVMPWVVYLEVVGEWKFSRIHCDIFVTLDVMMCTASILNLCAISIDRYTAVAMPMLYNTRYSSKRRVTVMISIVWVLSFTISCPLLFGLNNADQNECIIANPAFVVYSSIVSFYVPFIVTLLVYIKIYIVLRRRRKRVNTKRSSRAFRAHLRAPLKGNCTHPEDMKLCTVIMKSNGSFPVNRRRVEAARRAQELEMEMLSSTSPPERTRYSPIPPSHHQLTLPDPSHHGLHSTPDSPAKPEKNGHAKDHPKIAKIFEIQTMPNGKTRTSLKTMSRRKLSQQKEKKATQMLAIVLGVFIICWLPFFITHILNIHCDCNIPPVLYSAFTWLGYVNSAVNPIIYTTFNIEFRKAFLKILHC
# assay: Radioligand binding ([3H]-spiperone) to human D2 receptor, HEK293 EBNA membranes
# condition label: HEK293 EBNA cells expressing human D2 receptor
metric: pKi
// returns pKi (minus log10 of molar concentration), number only

Check out these entries, answers already filled in.
[[record]]
compound = "N#Cc1ccc(C(=O)N[C@H]2CC[C@H](CCN3CCC(c4coc5ccccc45)CC3)CC2)cc1 [Example 70]"
observed = 7.82

[[record]]
compound = "Cc1ccc(C(=O)N[C@H]2CC[C@H](CCN3CCC(c4coc5ccccc45)CC3)CC2)cn1 [Example 69]"
observed = 7.55

[[record]]
compound = "CC(C)Cc1ccc(C(=O)N[C@H]2CC[C@H](CCN3CCC(c4coc5ccccc45)CC3)CC2)cc1 [Example 80]"
observed = 6.54


// below: pKi requested for another compound
May I ask what pKi has been recorded for CC(C)(C)CC(=O)N[C@H]1CC[C@H](CCN2CCC(c3coc4ccccc34)CC2)CC1 [Example 40] ?
7.28
